Catalogue of growth readings, one per entry.
Tested on: NCI-H23 lung
Test: NCI-60 one-dose screen, 48 h (100 = growth as untreated, 0 = no growth, -100 = all killed)
Settings: 10 µM unless noted
Experimental: Growth inhibition of the NCI-H23 human Non-Small Cell Lung tumor cell line is measured as a screen for anti-cancer activity. Cells are grown in 96 well plates and exposed to the test compound for 48 hours. Compounds are tested at a single concentration, which is 10^-5 M for most compounds. The reported endpoint is percent growth (GI% or GIPRCNT), where numbers from 0 - 100% represent growth inhibition, and numbers from -100% - 0 represent cell death. […]
This is part of a sample that, as a whole, favours compounds with a hit. Of some 83,000 tested, about 20% had one in any assay.
Write down the numeric answer in % and omit the unit.

Here is how some compounds turned out for growth.
{"columns": ["Structure", "growth / %"],
 "data": [
  ["COc1ccc(-c2nnc(COc3ccc(C(=O)/C=C/c4ccco4)cc3)o2)cc1", 92.1],
  ["COc1nccc2cc3c(=O)n4c(cc5ccccc54)c(=O)n3c12", 89.8]
]}

Next compound, growth to be filled in.
Sample `O=C1/C(=C/c2ccc(O)cc2)COc2ccc(O)cc21` ; growth observed: 92.2

---

System: UACC-62 melanoma
Experiment: NCI-60 one-dose screen, 48 h
Details: 10 µM unless noted
The panel holds about 83,000 compounds, 20% with a hit somewhere; the sample as a whole holds those more often. Calls of active or inactive are those of the source. Rule for the calls: active = growth percent below 10; inactive = the rest.
Your response should consist of one outcome taken from label 1 (active), label 0 (inactive)

{"columns": ["Structure", "Assigned label"],
 "data": [
  ["COc1ccc(/C(C#N)=C/c2nc3c(N4CCOCC4)nc(Cl)nc3n2C)cc1OC", "label 1"],
  ["O=C1c2ccccc2C(=O)c2c1ccc1[nH]c(CCl)nc21", "label 0"],
  ["C#CCn1cc(C=C2C(=O)NC(=O)NC2=O)c2cc(Cl)ccc21", "label 0"],
  ["Cc1ccc2[nH]c(=O)cc(-n3nncc3Cn3c4ccccc4c4ccccc43)c2c1", "label 0"]
]}

// switching to the query compound
Ask: Test call, this compound: `O=c1oc2ccc(-c3ccc(F)cc3F)cc2c(=O)n1-c1cccc(C(F)(F)F)c1`
Reply: label 1

---

System: OVCAR-5 ovarian
Assay: NCI-60 one-dose screen, 48 h (100 = growth as untreated, 0 = no growth, -100 = all killed)
Details: 10 µM unless noted
About 83,000 compounds went through this panel and 20% of them were active in at least one assay; those are over-represented in the sample as a whole.
Rule: growth below 80% gives Condition met, anything at or above gives Condition not met.

Ask: Please check: growth for `Nc1ccc(-c2nn3c(CCC(=O)c4nc5ncccc5[nH]4)nnc3s2)c(O)c1` , strictly under 80% or not?
Reply: Condition not met

---

Test system: NCI-H322M lung
Assay: NCI-60 one-dose screen, 48 h
Details: 10 µM unless noted
Compounds without any hit were thinned out: in the full panel of roughly 83,000, 20% have a hit. Activity calls are given as the source filed them. Rule for the calls: active = growth percent below 10; inactive = the rest.
Your response should consist of one outcome taken from Y for active, N for inactive

Ask: Test call, this molecule: `COc1ccc(Cn2cc(Cn3cc(C=C4C(=O)NC(=O)NC4=O)c4ccccc43)nn2)cc1`
Reply: N

Ask: Test call, this molecule: `COc1ccc(CCN2C(=O)CCSC2=S)cc1OC`
Reply: N

Ask: Test call, this molecule: `Nc1ccc(-n2c(=O)oc3ccc(Cl)cc3c2=O)c(Cl)c1`
Reply: Y

Ask: Test call, this molecule: `CCCCOCc1cc(CN2CCN(C)CC2)c(O)c2ncccc12`
Reply: N

---

Tested on: HCT-116 colon
Assay: NCI-60 one-dose screen, 48 h (100 = growth as untreated, 0 = no growth, -100 = all killed)
Conditions: 10 µM unless noted
The panel holds about 83,000 compounds, 20% with a hit somewhere; the sample as a whole holds those more often.
Range-based classes on measured growth: low-valued (below 10%), mid-valued (10% to below 60%), high-valued (60% or more)

Ask: Form: Item = `O=C(/C=C/c1cccc(Cl)c1)OCc1ccc2cc1OCC#C/C=C\C#CCO2` ; Class = ?
Reply: high-valued

Ask: Form: Item = `CC(=S)NC(=O)C(=O)/C=C1/NC(=O)C(=O)S1` ; Class = ?
Reply: high-valued

---

Catalogue of growth readings, one per entry.
System: SF-268 CNS
Experiment: NCI-60 one-dose screen, 48 h (100 = growth as untreated, 0 = no growth, -100 = all killed)
Conditions: 10 µM unless noted
Compounds without any hit were thinned out: in the full panel of roughly 83,000, 20% have a hit.
Write down the numeric answer in % and omit the unit.

Here is how some compounds turned out for growth.
{"columns": ["Compound", "Measured on", "Endpoint value"],
 "data": [
  ["CN(CCc1ccccc1)C(=S)N(C(=O)c1ccc([N+](=O)[O-])cc1)c1ccc(Cl)cc1", "SF-268 CNS", 91.7],
  ["COc1cc(C#N)cc2[nH]c(=O)oc12", "SF-268 CNS", 100],
  ["Nc1nonc1-n1nncc1-c1cccnc1", "SF-268 CNS", 106],
  ["COc1cc2nc(-c3cccc4cccnc34)nc(NC3CCN(Cc4ccccc4)CC3)c2cc1OC", "SF-268 CNS", -68.8],
  ["COc1ccc(-n2c(C(O)c3ccccc3)nn(CN3CCOCC3)c2=S)cc1 (stereo unspecified)", "SF-268 CNS", 103]
]}

Next compound, growth to be filled in.
Sample N#Cc1c(N)nc2c(c1N)C(c1ccc(F)cc1)c1ccc(N)cc1O2 (stereo unspecified) ; growth observed: 105

---

Tested on: SF-295 CNS
Test: NCI-60 one-dose screen, 48 h (100 = growth as untreated, 0 = no growth, -100 = all killed)
Settings: 10 µM unless noted
This is part of a sample that, as a whole, favours compounds with a hit. Of some 83,000 tested, about 20% had one in any assay.
Catalogue of growth readings, one per entry.
Write down the numeric answer in % and omit the unit.

{"columns": ["Compound", "Measured on", "Value type", "Uom", "Endpoint value"],
 "data": [
  ["CCC(C)(C)C(=O)O[C@H]1C[C@@H](C)C=C2C=C[C@H](C)[C@H](CC[C@@H]3CC=CC(=O)O3)[C@H]21", "SF-295 CNS", "growth", "%", 97.5],
  ["COC(=O)/C(=C\\c1c(C)[nH]c2ccccc12)S(=O)(=O)c1ccccc1", "SF-295 CNS", "growth", "%", 16.6],
  ["O=C(Nc1ccc(N2CCNCC2)cc1)c1[nH]ncc1Nc1cc(Oc2ccccc2)ncn1", "SF-295 CNS", "growth", "%", -70.2]
]}

Next compound, growth to be filled in.
Sample `O=C(CN1C(=O)/C(=C\c2ccc(Cl)cc2)SC1=S)Nc1ncc(Cc2ccc(Cl)cc2)s1` ; growth observed: 101

---

Catalogue of growth readings, one per entry.
Tested on: HS 578T breast
Test: NCI-60 one-dose screen, 48 h (100 = growth as untreated, 0 = no growth, -100 = all killed)
Conditions: 10 µM unless noted
This is part of a sample that, as a whole, favours compounds with a hit. Of some 83,000 tested, about 20% had one in any assay. Calls of active or inactive are those of the source. How the source made its calls: active means growth percent below 10; inactive means the rest.

Here is how some molecules turned out for growth.
{"columns": ["Structure", "growth"],
 "data": [
  ["COc1ccc(-c2nocc2-c2cccs2)cc1", "91.1% (inactive)"],
  ["COc1ccc(Cn2c(Br)c3c(c2-c2cc(OC)c(OC)c(OC)c2)CCc2sc(NC(C)=O)nc2-3)cc1", "24.6% (inactive)"]
]}

Here `c1ccc2cc3c(Nc4ccc(N5CCOCC5)cc4)ccnc3cc2c1` was tested on HS 578T breast, and its growth came to 103% (inactive)

Here `O=C(Nc1ccc(Cl)cc1)c1cc2ccccc2cc1OP(=O)(O)O` was tested on HS 578T breast, and its growth came to 32.9% (inactive)

Here `O=c1nc2sc3nc4ccccc4cc3cc-2s1` was tested on HS 578T breast, and its growth came to 79.9% (inactive)

Here `COc1cc(C(=O)NN=C2c3ccccc3-c3ccccc32)cc(OC)c1OC` was tested on HS 578T breast, and its growth came to 50.6% (inactive)

---

Catalogue of growth readings, one per entry.
Tested on: HCC-2998 colon
Experiment: NCI-60 one-dose screen, 48 h (100 = growth as untreated, 0 = no growth, -100 = all killed)
Conditions: 10 µM unless noted
The panel holds about 83,000 compounds, 20% with a hit somewhere; the sample as a whole holds those more often. Activity calls are given as the source filed them. How the source made its calls: active means growth percent below 10; inactive means the rest.

Sample `CC(=S)NC(=O)C(=O)/C=C1/NC(=O)C(=O)S1` ; growth observed: 108% (inactive)

Sample COc1ccc(-n2c(C(O)c3ccccc3)nn(CN3CCOCC3)c2=S)cc1 (stereo unspecified) ; growth observed: 106% (inactive)

Sample CN1C(=O)N(C)C2C1NN=c1s/c(=C\c3ccc([N+](=O)[O-])cc3)c(=O)n12 (stereo unspecified) ; growth observed: 84.9% (inactive)

Sample `COc1cc(CNC(=O)c2ccsc2Nc2ccnc(C(F)(F)F)c2)ccc1O` ; growth observed: 109% (inactive)

Sample COc1ccc(C2NCCc3c2[nH]c2ccccc32)cc1CN1CCN(c2ccc(F)cc2)CC1 (stereo unspecified) ; growth observed: 17.9% (inactive)

Sample `O=C(/C=C/c1cccc(Cl)c1)OCc1ccc2cc1OCC#C/C=C\C#CCO2` ; growth observed: 107% (inactive)

Sample `O=c1oc2ccc(Cl)cc2c(=O)n1-c1ccc(Cl)cc1F` ; growth observed: 10.7% (inactive)
